The origin of these recorded values is PubChem BioAssay (NCI).

- method-notes: NCI Yeast Anticancer Drug Screen. Data for the mlh1 rad18 strain (AID 175)
- measurement-setup: S. cerevisiae mlh1 rad18 strain growth inhibition; at 50.0 µM; active compounds read high
The panel holds about 79,000 compounds, 15% with a hit somewhere; the sample as a whole holds those more often.
Please go through the items and note down their growth inhibition.
Quick reminder: number only, in %, skip the unit.

[ask] Which growth inhibition value belongs to CC1CCC(Oc2nc3c(c(=O)n(C)c(=O)n3C)n2C)CC1 (stereo unspecified) ?
[reply] -12.5

[ask] Report growth inhibition for "Cc1c2ccn3c(=O)c4ccccc4cc3c2c(C)c2c1[nH]c1ccccc12" please.
[reply] 26.6

[ask] Sample "Cc1cc(N(CCCCl)CCCCl)ccc1C=Nc1cc(Br)c(O)c(Br)c1" — what was its growth inhibition?
[reply] 84.9

[ask] Bench note: what growth inhibition did "N#CN=CN1CCN(c2ccccc2)CC1" show?
[reply] -11.9

[ask] Param item = "COC(=O)CCC(=O)CC(=O)C1=NS(=O)(=O)c2nc(S(N)(=O)=O)c(Cl)cc2N1" ; retrieve measured growth inhibition.
[reply] -1.35

[ask] growth inhibition lookup needed for "NCCCn1[nH]c(=O)c2cccnc2c1=O" , thanks.
[reply] -16.3

[ask] Recorded growth inhibition of CC(C)CCCC(C)CCCC(C)CCCC(C)CC(=O)O (stereo unspecified) , please.
[reply] -23.3

[ask] # input compound: CC(=O)OCC1OC(n2c3c(cc(C#N)c2=S)CCCCC3)C(OC(C)=O)C(OC(C)=O)C1OC(C)=O (stereo unspecified) ; wanted: its growth inhibition
[reply] -7.1

[ask] # growth inhibition lookup, item O=C(NCCCN1CC2CCCC2C1)C(c1ccccc1)c1ccccc1 (stereo unspecified)
[reply] -24.3

[ask] I would be grateful if you could share the reported growth inhibition for "O=C1Oc2ccccc2C(=O)C1=S1CCCC1" .
[reply] 14.6

[ask] Reported growth inhibition for "Nc1nc(NC(=O)C2=NS(=O)(=O)c3cc(S(N)(=O)=O)c(Cl)cc3N2)n[nH]1" : what is it?
[reply] -2.3
